- Test system: 313798-341-R-J2-PDC spheroids, viability
- Experimental Details: Anticancer human tumor 313798-341-R-J2-PDC patient-derived cervical squamous cell carcinoma cell line growth inhibition [PI3K]
- Condition Summary: second compound 0.0316 µM; first compound 0.000316 µM; stronger effect = lower value; spheroids with HUVEC and MSC
Measurement Type: viability, T/C (%)
Please reply with the bare figure in % and do not write the unit itself.

Record excerpt, results attached:
Compound	Measurement Type	Units Symbol	Numeric Result
CC(=O)c1c(C)c2cnc(Nc3ccc(N4CCNCC4)cn3)nc2n(C2CCCC2)c1=O + CC(Nc1ncnc2nc[nH]c12)c1cc2cccc(Cl)c2c(=O)n1-c1ccccc1	viability, T/C	%	100
CC(C)n1nc(-c2ccc3oc(N)nc3c2)c2c(N)ncnc21 + CC(Nc1ncnc2nc[nH]c12)c1cc2cccc(Cl)c2c(=O)n1-c1ccccc1	viability, T/C	%	102

Could you tell me which viability, T/C is on file for Cn1ncnc1[C@H]1c2n[nH]c(=O)c3cc(F)cc(c23)N[C@@H]1c1ccc(F)cc1 + CC(Nc1ccc2c(c1)OCCn1cc(N3C(=O)OCC3C(F)F)nc1-2)C(N)=O ?
107

What value of viability, T/C has been reported for the following compound? CC(=O)c1c(C)c2cnc(Nc3ccc(N4CCNCC4)cn3)nc2n(C2CCCC2)c1=O + Cc1nc(NC(=O)N2CCCC2C(N)=O)sc1-c1ccnc(C(C)(C)C(F)(F)F)c1
105

What value of measured viability, T/C is listed for CC(C)n1nc(-c2ccc3oc(N)nc3c2)c2c(N)ncnc21 + Cc1nc(NC(=O)N2CCCC2C(N)=O)sc1-c1ccnc(C(C)(C)C(F)(F)F)c1 ?
91.6

* * *

- System: 313798-341-R-J2-PDC spheroids, viability
- Experimental Details: Anticancer human tumor 313798-341-R-J2-PDC cell line growth inhibition [PI3K];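 also: spheroids exposed to compounds for seven days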;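 as to viability, T/C: 100% = DMSO vehicle control viability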
- Condition Summary: second compound 10 µM; first compound 0.316 µM; stronger effect = lower value; spheroids with HUVEC and MSC
Measurement Type: viability, T/C

Answered cases to consult:
Compound	Result
CC(C)NCC(C(=O)N1CCN(c2ncnc3c2C(C)CC3O)CC1)c1ccc(Cl)cc1 (stereo not drawn) + CC(Nc1ncnc2nc[nH]c12)c1cc2cccc(Cl)c2c(=O)n1-c1ccccc1	75.9%
Cn1ncc(Cl)c1-c1cc(C(=O)NC(CN)Cc2cccc(F)c2)sc1Cl (stereo not drawn) + Cc1nc(NC(=O)N2CCCC2C(N)=O)sc1-c1ccnc(C(C)(C)C(F)(F)F)c1	31.9%

Requested read-out viability, T/C, target or system 313798-341-R-J2-PDC spheroids, viability, entry CC(Cn1ccc(-c2ccc(C#N)c(Cl)c2)n1)NC(=O)c1cc(C(C)O)[nH]n1 (stereo not drawn) + CC(Nc1ncnc2nc[nH]c12)c1cc2cccc(Cl)c2c(=O)n1-c1ccccc1
94.6%

* * *

Parameter IC50: see the listing below.
- System: 313798-341-R-J2-PDC spheroids, viability
- Experimental Details: Anticancer human tumor 313798-341-R-J2-PDC cell line growth inhibition [PI3K];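 also: spheroids exposed to compounds for seven days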
- Condition Summary: curve of first compound; second compound 1 µM; spheroids with HUVEC and MSC

Known results for molecules:
Molecule	System Under Test	Measurement Type	Result
CC1(C)CCC(CN2CCN(c3ccc(C(=O)NS(=O)(=O)c4ccc(NCC5CCOCC5)c([N+](=O)[O-])c4)c(Oc4cnc5[nH]ccc5c4)c3)CC2)=C(c2ccc(Cl)cc2)C1 + COc1c(OCCCN2CCOCC2)ccc2c3n(c(=NC(=O)c4cnc(N)nc4)nc12)CCN3	313798-341-R-J2-PDC spheroids, viability	IC50	< 0.0316 µM
CCCS(=O)(=O)Nc1ccc(F)c(C(=O)c2c[nH]c3ncc(-c4ccc(Cl)cc4)cc23)c1F + COc1c(OCCCN2CCOCC2)ccc2c3n(c(=NC(=O)c4cnc(N)nc4)nc12)CCN3	313798-341-R-J2-PDC spheroids, viability	IC50	< 0.0316 µM
C=CC(=O)N1CCN(c2nc(=O)n(-c3c(C)ccnc3C(C)C)c3nc(-c4c(O)cccc4F)c(F)cc23)C(C)C1 (centres undefined) + COc1c(OCCCN2CCOCC2)ccc2c3n(c(=NC(=O)c4cnc(N)nc4)nc12)CCN3	313798-341-R-J2-PDC spheroids, viability	IC50	< 0.0316 µM

Turning to the following molecule.
Quick one: IC50 for C#Cc1c(F)ccc2cc(O)cc(-c3ncc4c(N5CC6CCC(C5)N6)nc(OCC56CCCN5CC(F)C6)nc4c3F)c12 (centres undefined) + Cc1nc(NC(=O)N2CCCC2C(N)=O)sc1-c1ccnc(C(C)(C)C(F)(F)F)c1 ?
> 10 µM

* * *

- Test system: 313798-341-R-J2-PDC spheroids, viability
- Experimental Details: Anticancer human tumor 313798-341-R-J2-PDC cell line growth inhibition [PI3K];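 also: spheroids exposed to compounds for seven days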;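 as to viability, T/C: 100% = DMSO vehicle control viability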
- Condition Summary: second compound 1 µM; first compound 0.01 µM; stronger effect = lower value; spheroids with HUVEC and MSC
Measurement Type: viability, T/C (%)
Give just the number in %; leave the unit off.

Examples with answers:
Molecule	viability, T/C, %
CCN1CCN(Cc2ccc(Nc3ncc(F)c(-c4cc(F)c5nc(C)n(C(C)C)c5c4)n3)nc2)CC1 + Cc1nc(NC(=O)N2CCCC2C(N)=O)sc1-c1ccnc(C(C)(C)C(F)(F)F)c1	102
CC(=O)c1c(C)c2cnc(Nc3ccc(N4CCNCC4)cn3)nc2n(C2CCCC2)c1=O + CC(Nc1ccc2c(c1)OCCn1cc(N3C(=O)OCC3C(F)F)nc1-2)C(N)=O	55.4
CC(=O)c1c(C)c2cnc(Nc3ccc(N4CCNCC4)cn3)nc2n(C2CCCC2)c1=O + Cc1nc(NC(=O)N2CCCC2C(N)=O)sc1-c1ccnc(C(C)(C)C(F)(F)F)c1	98.7

Would you mind telling me what viability, T/C value was observed for CCN1CCN(Cc2ccc(Nc3ncc(F)c(-c4cc(F)c5nc(C)n(C(C)C)c5c4)n3)nc2)CC1 + COc1c(OCCCN2CCOCC2)ccc2c3n(c(=NC(=O)c4cnc(N)nc4)nc12)CCN3 ?
14.3

I have this molecule here, CCN1CCN(Cc2ccc(Nc3ncc(F)c(-c4cc(F)c5nc(C)n(C(C)C)c5c4)n3)nc2)CC1 + CC(Nc1ccc2c(c1)OCCn1cc(N3C(=O)OCC3C(F)F)nc1-2)C(N)=O , and I need its recorded viability, T/C.
48.3

Give its viability, T/C value. Item: CC(C)n1nc(-c2ccc3oc(N)nc3c2)c2c(N)ncnc21 + CC(Nc1ncnc2nc[nH]c12)c1cc2cccc(Cl)c2c(=O)n1-c1ccccc1
89.7

* * *

- Tested on: 313798-341-R-J2-PDC spheroids, viability
- Experimental Details: Anticancer human tumor 313798-341-R-J2-PDC cell line growth inhibition [PI3K];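 also: spheroids exposed to compounds for seven days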;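 as to viability, T/C: 100% = DMSO vehicle control viability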
- Condition Summary: second compound 0.316 µM; first compound 0.316 µM; stronger effect = lower value; spheroids with HUVEC and MSC
Measurement Type: viability, T/C (%)
Respond with the bare value in %.

Compound	viability, T/C [%]
CCCS(=O)(=O)Nc1ccc(F)c(C(=O)c2c[nH]c3ncc(-c4ccc(Cl)cc4)cc23)c1F + COc1c(OCCCN2CCOCC2)ccc2c3n(c(=NC(=O)c4cnc(N)nc4)nc12)CCN3	19.1
Cn1nccc1Nc1nccc(-c2ccn(C(CO)c3ccc(Cl)c(F)c3)c(=O)c2)n1 (stereo not given) + CC(Nc1ncnc2nc[nH]c12)c1cc2cccc(Cl)c2c(=O)n1-c1ccccc1	90.2
CC1(C)CCC(CN2CCN(c3ccc(C(=O)NS(=O)(=O)c4ccc(NCC5CCOCC5)c([N+](=O)[O-])c4)c(Oc4cnc5[nH]ccc5c4)c3)CC2)=C(c2ccc(Cl)cc2)C1 + COc1c(OCCCN2CCOCC2)ccc2c3n(c(=NC(=O)c4cnc(N)nc4)nc12)CCN3	16.5
CCN1CCN(Cc2ccc(Nc3ncc(F)c(-c4cc(F)c5nc(C)n(C(C)C)c5c4)n3)nc2)CC1 + Cc1nc(NC(=O)N2CCCC2C(N)=O)sc1-c1ccnc(C(C)(C)C(F)(F)F)c1	114
CCCS(=O)(=O)Nc1ccc(F)c(C(=O)c2c[nH]c3ncc(-c4ccc(Cl)cc4)cc23)c1F + Cc1nc(NC(=O)N2CCCC2C(N)=O)sc1-c1ccnc(C(C)(C)C(F)(F)F)c1	90.8

# get_value(readout= viability, T/C, system= 313798-341-R-J2-PDC spheroids, viability) for CC1(C)CCC(CN2CCN(c3ccc(C(=O)NS(=O)(=O)c4ccc(NCC5CCOCC5)c([N+](=O)[O-])c4)c(Oc4cnc5[nH]ccc5c4)c3)CC2)=C(c2ccc(Cl)cc2)C1 + CC(Nc1ccc2c(c1)OCCn1cc(N3C(=O)OCC3C(F)F)nc1-2)C(N)=O
78.2

Which viability, T/C is reported with 313798-341-R-J2-PDC spheroids, viability for this entry: CC(C)NCC(C(=O)N1CCN(c2ncnc3c2C(C)CC3O)CC1)c1ccc(Cl)cc1 (stereo not given) + CC(Nc1ncnc2nc[nH]c12)c1cc2cccc(Cl)c2c(=O)n1-c1ccccc1 ?
84.2

Lab note: need viability, T/C for CCN1CCN(Cc2ccc(Nc3ncc(F)c(-c4cc(F)c5nc(C)n(C(C)C)c5c4)n3)nc2)CC1 + CC(Nc1ncnc2nc[nH]c12)c1cc2cccc(Cl)c2c(=O)n1-c1ccccc1 on 313798-341-R-J2-PDC spheroids, viability, anyone have it?
104

State its viability, T/C on 313798-341-R-J2-PDC spheroids, viability: C[C@@H](NC(=O)c1ncnc(N)c1Cl)c1ncc(C(=O)Nc2cc(C(F)(F)F)c(Cl)cn2)s1 + Cc1nc(NC(=O)N2CCCC2C(N)=O)sc1-c1ccnc(C(C)(C)C(F)(F)F)c1
104

Test system 313798-341-R-J2-PDC spheroids, viability; read-out viability, T/C; what value for CC(Cn1ccc(-c2ccc(C#N)c(Cl)c2)n1)NC(=O)c1cc(C(C)O)[nH]n1 (stereo not given) + CC(Nc1ncnc2nc[nH]c12)c1cc2cccc(Cl)c2c(=O)n1-c1ccccc1 ?
96.6
